READOUT LABEL: melting point

According to the records, this molecule CCn1c(=O)c2[nH]c(/C=C/c3ccc(F)c(Cl)c3)nc2n(CC)c1=O displays melting point of > 270 °C

According to the records, this molecule CN(C)S(=O)(=O)n1c(N)nc2ccc(C(N)=O)cc21 displays melting point of 206 to 208 °C

According to the records, this molecule CC(C)(C)OC(=O)N[C@@H](Cc1ccccc1Cl)C(=O)NC1CCC(Nc2cccc3c2C(=O)c2ccccc2C3=O)CC1 (stereo not given in full) displays melting point of 183 °C

According to the records, this molecule Cc1nc(C)c(Cl)c(NCc2ccc(OCCn3c([N+](=O)[O-])cnc3C)c(Cl)n2)n1 displays melting point of 206 to 208 °C

According to the records, this molecule O=C(O)CN1C(=O)C(=Cc2c(-c3ccccc3)[nH]c3ccccc23)SC1=S displays melting point of 258 to 262 °C

* * *

Item-by-item account of melting point

Here's what some known entries look like.
[
  {
    "COMPOUND": "CC(CC(O)(C(=O)Nc1ccc2c(c1)COC2=O)C(F)(F)F)c1ccccc1 (stereo not given)",
    "REPORTED RESULT": "166 to 168 °C"
  },
  {
    "COMPOUND": "CC(=O)Nc1nc(CCc2ccc(C(=O)NC(=N)N)cc2)c(Cc2ccc(S(C)(=O)=O)cc2)s1",
    "REPORTED RESULT": "108 to 110 °C"
  }
]

According to the records, this compound O=C(O)c1cccc(-c2cc(-c3ccccc3)on2)c1 displays melting point of 250 to 251 °C

According to the records, this compound CC12CCC(C(=Cc3ccc(COc4ccccc4C(=O)O)cc3)C1=O)C2(C)C (stereo not given) displays melting point of 128 °C

According to the records, this compound C=CC(C)(C)C(O)(COc1ccc(-c2ccccc2)cc1)Cn1ccnc1 (stereo not given) displays melting point of 151 to 153 °C

* * *

Item-by-item account of melting point

[
  {
    "MOLECULE": "C=C(Cc1ccccc1)C(=O)O",
    "melting point": "61 to 62 °C"
  },
  {
    "MOLECULE": "ClCc1ccc(OCc2ccc3ccccc3n2)nc1",
    "melting point": "118 to 119 °C"
  },
  {
    "MOLECULE": "Clc1cnn(-c2ccc(CBr)c(Cl)c2)c1",
    "melting point": "77 to 78 °C"
  },
  {
    "MOLECULE": "NC(=O)NCc1cccc2c1C(=O)N(C1CCC(=O)NC1=O)C2=O (stereo not given)",
    "melting point": "292 to 294 °C"
  },
  {
    "MOLECULE": "N#Cc1cccc(C2C3=C(CCS3)NC3=C2C(=O)CCC3)c1 (single isomer, unassigned; (+))",
    "melting point": "> 250 °C"
  },
  {
    "MOLECULE": "COc1ccc(N=C(Cl)c2ccc(OC)cc2)cc1",
    "melting point": "116 °C"
  }
]

According to the records, this molecule CC(=O)N1CCN(C2CCN(c3ccc(NC(=O)c4cnn(-c5ccc(Cl)cc5)c4C)cc3C#N)CC2)CC1 displays melting point of 247 °C

According to the records, this molecule NC(=O)c1nc2cnc3ccccc3c2[nH]1 displays melting point of 326 to 328 °C

According to the records, this molecule CCCc1c(OCc2cccc(C(=O)NCCCc3cccnc3)c2)ccc(C(C)=O)c1O displays melting point of 110 to 112 °C

According to the records, this molecule Cc1ccc(C(=O)CCCOC(=O)Nc2ccccc2)cc1 displays melting point of 106 to 109 °C

* * *

Item-by-item account of melting point

Here's what some known entries look like.
[
  {
    "COMPOUND": "c1ccc(CN2CCN(Cc3ccccc3)[C@@H](CCc3ccccn3)C2)cc1",
    "REPORTED RESULT": "83 to 86 °C"
  },
  {
    "COMPOUND": "CP(=O)(O)CCC(=O)Nc1c(Br)cc(Br)cc1Br",
    "REPORTED RESULT": "248 °C"
  },
  {
    "COMPOUND": "COc1cc2c(Nc3cc(O)c(Cl)cc3F)c(C#N)cnc2c(OC)c1OC",
    "REPORTED RESULT": "223 to 225 °C"
  },
  {
    "COMPOUND": "CC(C)n1nc(C(=O)NCC2CCN(CCc3ccc(C(=O)O)cc3)CC2)c2ccccc21",
    "REPORTED RESULT": "179 to 181 °C"
  },
  {
    "COMPOUND": "CCOC(=O)CCCN(C(=O)CC)C(c1ccccc1)c1ccccc1",
    "REPORTED RESULT": "83 to 85 °C"
  },
  {
    "COMPOUND": "CCOC(=O)CCCC(=O)c1cn(-c2cccnc2)c2ccccc12",
    "REPORTED RESULT": "95 to 97 °C"
  },
  {
    "COMPOUND": "Nc1nc2ccccc2c2c1nc(CO)n2CCCCNC(=O)C1CCCC1",
    "REPORTED RESULT": "183 to 186 °C"
  },
  {
    "COMPOUND": "Cc1cccc2c(-c3ccc(Cl)cc3)nccc12",
    "REPORTED RESULT": "122 to 124 °C"
  }
]

According to the records, this compound CC(C)C1(Cl)Cc2cc(OCC(=O)O)cc(Cl)c2C1=O (centres undefined) displays melting point of 142 °C

* * *

Item-by-item account of melting point

Here's what some known entries look like.
[
  {
    "COMPOUND": "CC(C)c1ccc2c(c1)C(=O)N(C)C(c1ccc(C(C)(C)C)cc1)C2C(=O)O (stereo unspecified)",
    "melting point": "204 to 207 °C"
  },
  {
    "COMPOUND": "CC(=O)Nc1cccc2c1C(=O)OC2C (stereo unspecified)",
    "melting point": "112 °C"
  },
  {
    "COMPOUND": "COc1ccc(CN2Cc3cc(OC)c(O)cc3C(OC)C2)cc1 (stereo unspecified)",
    "melting point": "84 to 85 °C"
  },
  {
    "COMPOUND": "O=C(Nc1ccc(Cl)nc1)c1cccc(Cl)c1",
    "melting point": "227 to 229 °C"
  },
  {
    "COMPOUND": "O=C(O)CCCCCCCCNS(=O)(=O)c1cccc(Cl)c1",
    "melting point": "112 to 113 °C"
  }
]

According to the records, this compound CC(=O)n1nc(CBr)c(Oc2cc(Cl)cc(C#N)c2)c1C displays melting point of 122 to 123 °C

According to the records, this compound CC1(C)Oc2c(ccc3oc(C(=O)O)cc(=O)c23)-c2cc(Cl)ccc21 displays melting point of 262 to 264 °C

According to the records, this compound CCOC(=O)C1=C(CC)NCN(c2ccc(Cl)cc2)C1=O displays melting point of 118 to 120 °C

According to the records, this compound Nc1c(F)c(N2Cc3cccc(Cl)c3C2)c(F)c2c1c(=O)c(C(=O)O)cn2C1CC1 displays melting point of > 280 °C

According to the records, this compound O=[N+]([O-])c1cc(C(F)(F)F)ccc1-c1ccno1 displays melting point of 62 to 63 °C

According to the records, this compound CC(C)(C)c1ccc(NC(=O)NCc2ccc(-n3c(-c4cccnc4N)nc4cccnc43)cc2)cc1 displays melting point of 210 to 212 °C

According to the records, this compound O=C1c2c(F)cc(F)c(F)c2C(=O)N1c1ccccc1 displays melting point of 183 to 185 °C

According to the records, this compound Cc1noc(C)c1S(=O)(=O)Nc1ccc(Cl)cc1[N+](=O)[O-] displays melting point of 130 to 131 °C

According to the records, this compound Cc1ccccc1Nc1nc(Cl)c2sccc2n1 displays melting point of 87 to 89 °C

According to the records, this compound CC(C)(C)c1cccc2nc(C(F)(F)F)[nH]c12 displays melting point of 149 to 152 °C

According to the records, this compound COc1ccc(CN(CCN(C)CCCNC(=O)NCCCOc2cccc(CN3CCCCC3)c2)c2ccccn2)cc1 displays melting point of 120 °C

According to the records, this compound NS(=O)(=O)c1cc2c(c(C(=O)N3CCN(c4ncccn4)CC3)c1)OCCO2 displays melting point of 239 °C

According to the records, this compound COc1ccc2nc(NC(=O)C(CC3CCCC3)c3ccc(S(=O)(=O)N(C)C)cc3)sc2n1 (stereo unspecified) displays melting point of 229 to 234 °C

According to the records, this compound Nc1nc2c(s1)CCNCC2 displays melting point of 150 to 160 °C

According to the records, this compound CCOC(C)c1ccc(OCCOc2ncnc(NS(=O)(=O)c3ccc(C(C)(C)C)cc3)c2-c2ccc(C)cc2)cc1 (stereo unspecified) displays melting point of 139 to 140 °C

According to the records, this compound CN(C)C(=O)N1CC2(CCN(C(=O)Nc3nnc(-c4ccccc4)s3)CC2)c2ccccc21 displays melting point of 267 °C

According to the records, this compound COc1ccc(S(=O)(=O)C2(C(=O)O)CCN(CCCc3ccccc3)CC2)cc1 displays melting point of 203 °C

According to the records, this compound CC(=O)C(CCCc1ccccc1)n1cnc2c(=O)[nH]c(Cc3ccc(OC(F)F)c(N)c3)nc21 (stereo unspecified) displays melting point of 149 to 150 °C

According to the records, this compound CC(=CCO)COc1ccc([N+](=O)[O-])cc1 displays melting point of 41 to 43 °C

According to the records, this compound CC(C)(NC(=O)C(CS)NC(=O)c1ccccc1)c1ccccc1 (stereo unspecified) displays melting point of 169 to 173 °C
